Measured LD50, listed per entry.
# Test system: Rattus norvegicus
# condition notes: acute; oral; gavage
Report the figure in mg/kg without appending any unit label.

molecule="CCCCCCCCCCCCN [1-Dodecanamine]" test_target="Rattus norvegicus" units_text=mg/kg readout_value=1020

# context switch: different molecule, same LD50
Ask: Note down LD50 recorded for CC(C)(C)c1cccc(C(C)(C)C)c1O [2,6-Di-tert-butylphenol]
Reply: 6290

---

# System: Rattus norvegicus
# condition notes: acute; oral; gavage; Wistar
This section presents molecules with their documented LD50 values.

Would you please look over these solved cases?
molecule="SCc1ccccc1 [Benzenemethanethiol]" readout_value="493 mg/kg"
molecule="CCCCCCCCC(=O)OCC(CC)(COC(=O)CCCCCCCC)COC(=O)CCCCCCCC [Trimethylolpropane trinonanoate]" readout_value="> 2000 mg/kg"
molecule="Cc1ccc(OP(=O)(Oc2ccc(C)cc2)Oc2ccc(C)cc2)cc1.Cc1cccc(OP(=O)(Oc2cccc(C)c2)Oc2cccc(C)c2)c1.Cc1ccccc1OP(=O)(Oc1ccccc1C)Oc1ccccc1C [Tris(methylphenyl) phosphate]" readout_value="> 20000 mg/kg"
molecule="c1ccc2sc(SN3CCOCC3)nc2c1 [N-Oxydiethylene-2-benzothiazylsulfenamide]" readout_value="> 10000 mg/kg"
molecule="OCCCO [1,3-Propanediol]" readout_value="15.8 mg/kg"

Please look at the following molecule next.
Ask: # return recorded LD50 for entry Oc1cc(Cl)ccc1Cl [2,5-Dichlorophenol]
Reply: 2480 mg/kg

---

# Tested on: Oryctolagus sp.
# condition notes: acute; dermal
experimental readout: LD50

# count of solved cases: 4
compound="CCCCC(CC)COP(=O)(OCC(CC)CCCC)OCC(CC)CCCC (stereo not given) [Tris(2-ethylhexyl) phosphate]" test_target="Oryctolagus sp." experimental_readout=LD50 readout_value="20000 mg/kg"
compound=CCCCCCC=O test_target="Oryctolagus sp." experimental_readout=LD50 readout_value="> 5000 mg/kg"
compound="CCC(C)(CCC(C)C)C(=O)O (stereo not given)" test_target="Oryctolagus sp." experimental_readout=LD50 readout_value="> 3160 mg/kg"
compound="Cc1ccc(OP(=O)(Oc2ccc(C)cc2)Oc2ccc(C)cc2)cc1.Cc1cccc(OP(=O)(Oc2cccc(C)c2)Oc2cccc(C)c2)c1.Cc1ccccc1OP(=O)(Oc1ccccc1C)Oc1ccccc1C [Tris(methylphenyl) phosphate]" test_target="Oryctolagus sp." experimental_readout=LD50 readout_value="> 10000 mg/kg"

Ask: Give LD50 only, for CCOP(=O)(CN(CCO)CCO)OCC [Diethyl (N,N-bis(2-hydroxyethyl)amino)methanephosphonate] , using Oryctolagus sp. data.
Reply: > 2000 mg/kg

---

# System: Rattus norvegicus
# condition notes: reproduction developmental; duration: 10 days; oral; gavage; F; Sprague-Dawley
The compounds listed here are annotated with their NOAEL.
Report the figure in mg/kg-day without appending any unit label.

Sample records with NOAEL:
compound="CC(C)CC(C)Nc1ccc(Nc2ccccc2)cc1 (stereo unspecified)" experimental_readout=NOAEL readout_value=50
compound="C=C1C2CCC(C2)C1(C)C (stereo unspecified)" experimental_readout=NOAEL readout_value=250

Ask: For CCCCCCCCCCCCCCCCCCOC(=O)CCc1cc(C(C)(C)C)c(O)c(C(C)(C)C)c1 [Octadecyl 3-(3,5-di-tert-butyl-4-hydroxyphenyl)propionate] , write its NOAEL.
Reply: 150

Ask: Identify measured NOAEL associated with O=P(OC(CCl)CCl)(OC(CCl)CCl)OC(CCl)CCl [Tris(1,3-dichloro-2-propyl) phosphate]
Reply: 25

Ask: Answer with the recorded NOAEL for the compound listed here: S=c1[nH]c2ccccc2s1
Reply: 300

---

The reader will find reported log10 LD50 values listed item by item below.
# Tested on: Rattus norvegicus
# condition notes: acute; oral; gavage; Sprague-Dawley
Could you please treat all values as log10 of LD50 in mg/kg?

compound="O=C(OCC1CCC2OC2C1)C1CCC2OC2C1 (stereo not drawn)" test_target="Rattus norvegicus" readout_value=3.70

Ask: Return log10 LD50 (reported value) for this compound: [S-]c1nc2ccccc2s1.[S-]c1nc2ccccc2s1.[Zn+2] [Zinc 2-mercaptobenzothiazolate]
Reply: 3.88

Ask: In one line, give reported log10 LD50 of the entry C1CN(SSN2CCOCC2)CCO1 .
Reply: 3.75

Ask: # return recorded log10 LD50 for input C1COCO1
Reply: 3.72

Ask: Please look at this compound and report its log10 LD50: CCCC[N+](CC)(CCCC)CCCCCC[N+](CC)(CCCC)CCCC.[OH-].[OH-]
Reply: 2.54

---

The following molecules are listed with their measured LD50 values.
# System: Oryctolagus sp.
# condition notes: acute; dermal

molecule="O=C(Cl)c1ccccc1 [Benzoyl chloride]" readout_value="790 mg/kg"
molecule="O=P(OC(CCl)CCl)(OC(CCl)CCl)OC(CCl)CCl [Tris(1,3-dichloro-2-propyl) phosphate]" readout_value="> 4640 mg/kg"
molecule="CCCCCCCCC(=O)OCC(CC)(COC(=O)CCCCCCCC)COC(=O)CCCCCCCC [Trimethylolpropane trinonanoate]" readout_value="> 2000 mg/kg"
molecule="CCCCCCCCCCCCCCCCCCOC(=O)CCc1cc(C(C)(C)C)c(O)c(C(C)(C)C)c1 [Octadecyl 3-(3,5-di-tert-butyl-4-hydroxyphenyl)propionate]" readout_value="> 2000 mg/kg"

// next entry
Ask: Provide LD50 value for the following molecule: S=c1[nH]c2ccccc2s1
Reply: > 7940 mg/kg

---

# Tested on: Rattus norvegicus
# condition notes: repeat dose other; oral
Overview of reported LOAEL across a group of compounds:
Number in mg/kg-day, nothing else.

compound="[O-2].[Zn+2] [Zinc oxide]" units_text=mg/kg-day readout_value=320

Ask: Fill in reported LOAEL for this entry: ClCCl
Reply: 50

Ask: Respond only with LOAEL recorded for [Ba+2].[OH-].[OH-] [Barium hydroxide]
Reply: 19.8

---

Quick list: NOAEL per entry.
# System: Rattus norvegicus
# condition notes: developmental; duration: 10 days; oral; gavage; Sprague-Dawley

Use these answered entries as a reference point.
compound="CC(C)CC(C)Nc1ccc(Nc2ccccc2)cc1 (stereo not drawn)" readout_value="> 250 mg/kg-day"
compound=O=C1c2c(Br)c(Br)c(Br)c(Br)c2C(=O)N1CCN1C(=O)c2c(Br)c(Br)c(Br)c(Br)c2C1=O readout_value="≥ 1000 mg/kg-day"

Ask: Given CCCCCCCCCCCCCCCCCCOC(=O)CCc1cc(C(C)(C)C)c(O)c(C(C)(C)C)c1 [Octadecyl 3-(3,5-di-tert-butyl-4-hydroxyphenyl)propionate] , respond with its NOAEL.
Reply: > 1000 mg/kg-day

---

Recorded LD50 values for a group of compounds are listed next.
# Test system: Oryctolagus sp.
# condition notes: acute; dermal; occlusive; New Zealand

The following compounds have reported results that may help.
compound=C1CN(SSN2CCOCC2)CCO1 readout_value="> 5010 mg/kg"
compound="O=C(Cl)c1ccccc1 [Benzoyl chloride]" readout_value="> 2000 mg/kg"
compound="c1ccc2sc(SN3CCOCC3)nc2c1 [N-Oxydiethylene-2-benzothiazylsulfenamide]" readout_value="> 5010 mg/kg"

Would you kindly look at the next entry?
Ask: Please report LD50 with Oryctolagus sp. for item Oc1cc(Cl)ccc1Cl .
Reply: > 8000 mg/kg

---

# System: Rattus norvegicus
# condition notes: acute; oral; gavage
experimental readout: LD50

cpd_smiles=Cc1ccc(C)c(O)c1C experimental_readout=LD50 readout_value="> 2000 mg/kg"

Ask: # return LD50 for CCCCCCC=O , test system: Rattus norvegicus
Reply: > 5000 mg/kg

Ask: Give LD50 for this entry on Rattus norvegicus: N#Cc1cccc(C#N)c1
Reply: > 5010 mg/kg

---

# Test system: Rattus norvegicus
# condition notes: acute; oral; gavage; Wistar
experimental readout: LD50

Completed entries (count: 6):
molecule="CCCCCCCC/C=C\\CCCCCCCC(=O)OC[C@@H](OC(=O)CCCCCCC/C=C\\CCCCCCCC)[C@H]1OC[C@H](O)[C@H]1OC(=O)CCCCCCC/C=C\\CCCCCCCC [Sorbitan trioleate]" experimental_readout=LD50 readout_value="> 39800 mg/kg"
molecule="CCCCCCC(=O)OCCOCCOCCOCCOC(=O)CCCCCC [Tetraethylene glycol diheptanoate]" experimental_readout=LD50 readout_value="> 2000 mg/kg"
molecule="O=C(Cl)c1ccccc1 [Benzoyl chloride]" experimental_readout=LD50 readout_value="2530 mg/kg"
molecule="CCCCCCCCCCCCN [1-Dodecanamine]" experimental_readout=LD50 readout_value="> 2000 mg/kg"
molecule="O=S(=O)([O-])CCO.[Na+] [Sodium 2-hydroxyethanesulfonate]" experimental_readout=LD50 readout_value="> 5000 mg/kg"
molecule="CC(C)CCCCCCCOC(=O)CCCCCCCC(=O)OCCCCCCCC(C)C [Diisodecyl azelaate]" experimental_readout=LD50 readout_value="> 2000 mg/kg"

Ask: For the molecule CCCCCCC(C)(C)C(=O)OCC1CO1 (configuration not stated) [Glycidyl neodecanoate] , report LD50.
Reply: > 10000 mg/kg
